molecular target: human σ1 receptor (Homo sapiens, UniProt Q99720); experiment: biochemical; assay type: binding
Sequence (Q99720 whole entry): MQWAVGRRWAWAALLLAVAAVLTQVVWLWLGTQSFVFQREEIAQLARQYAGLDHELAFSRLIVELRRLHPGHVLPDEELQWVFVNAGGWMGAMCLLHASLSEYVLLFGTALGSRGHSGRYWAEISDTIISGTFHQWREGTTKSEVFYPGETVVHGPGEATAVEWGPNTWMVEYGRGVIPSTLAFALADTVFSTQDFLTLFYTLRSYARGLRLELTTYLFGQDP
pKi: −log10 of the molar value.
property_measured: pKi

| compound | result |
| --- | --- |
| CCC(=O)N(CC1(N2CCN(CCN3CCOCC3)CC2)CCOCC1)c1cccc(C(F)(F)F)n1 [Example 184] | < 6.30 |
| CCC(=O)N(CC1(N2CCN(Cc3ccccc3)CC2)CCOCC1)C(C)c1ccccc1 (stereo not shown) [Example 13] | > 7.00 |
| CCC(=O)N(CC1(N2CCN(CC(C)C)CC2)CCC1)c1cccc(C(F)(F)F)n1 [Example 203] | > 6.30 |
| CCC(=O)N(CC1(N2CCN(CC(C)C)CC2)CCOCC1)c1ccccn1 [Example 151] | < 6.30 |
| CCC(=O)N(CC1(N2CCN(Cc3ccccc3)CC2)CCC1)c1cccc(C(F)(F)F)n1 [Example 197] | > 7.00 |
| CCC(=O)N(CC1(N2CCN(Cc3ccccc3)CC2)CCOC2(CCCC2)C1)c1ccccn1 (stereo not shown) [Example 17] | > 6.30 |
| CCC(=O)N(CC1(N2CCN(CC(C)C)CC2)CC1)c1cccc(C(F)(F)F)n1 [Example 123] | > 7.00 |
| CCC(=O)N(CC1(N2CCN(C(C)c3ccc(F)cc3)CC2)CCOCC1)c1cccc(C(F)(F)F)n1 (stereo not shown) [Example 182] | > 6.30 |
| CCC(=O)N(CC1(N2CCN(Cc3ccccc3)CC2)CCOCC1)c1ncccc1C(F)(F)F [Example 59] | > 6.30 |
| CCC(=O)N(CC1(N2CCN(Cc3cccnc3)CC2)CCOCC1)c1ccccc1 [Example 101] | > 6.30 |

Please give measured pKi of the following entry: CCC(=O)N(CC1(N2CCN(CCOC(C)C)CC2)CCOC2(CCCC2)C1)c1cccc(C(F)(F)F)n1 (stereo not shown) [Example 174]
> 6.30

Please give measured pKi of the following entry: CCC(=O)N(CC1(N2CCN(CCOCC(C)(C)F)CC2)CCOCC1)c1cccc(C(F)(F)F)n1 [Example 189]
> 7.00

Please give measured pKi of the following entry: CCC(=O)N(CC1(N2CCN(Cc3cccnc3)CC2)CC1)c1ccccc1 [Example 119]
> 6.30

* * *

target: human σ1 receptor (Homo sapiens); assay: biochemical; type: binding
pKi: −log10 of the molar value.
property_measured: pKi

Please give measured pKi of the following entry: CCNC(=O)N(CC1(N2CCN(CCc3ccccc3)CC2)CCCCC1)c1ccccc1
> 6.30

Please give measured pKi of the following entry: CCC(=O)N(CC1(N2CCN(C(C)CC)CC2)CCOCC1)c1ccccn1 (centres unmarked)
< 6.30

* * *

target: UniProt:Q99720; assay: biochemical; format: binding
As shown below, each of these compounds has a reported Ki value.

A selection of reference data follows.
| compound | result |
| --- | --- |
| CCC(=O)N(CC1(N2CCN(CC(C)C)CC2)CCOC(C)(C)C1)c1ccccn1 (centres unmarked) | > 500 nM |
| CCC(=O)N(CC1(N2CCN(Cc3ccccc3)CC2)CC1)c1ccc(F)cn1 | < 500 nM |
| CCC(=O)N(CC1(N2CCN(Cc3ncccc3F)CC2)CC1)c1ccccc1 | > 500 nM |
| CCC(=O)N(CC1(N2CCN(Cc3cccc(F)c3)CC2)CCOCC1)c1ccccn1 | < 500 nM |

Please give measured Ki of the following entry: CCC(=O)N(CC1(N2CCN(Cc3ccc(F)cc3)CC2)CCOCC1)c1ccccc1
< 100 nM

Please give measured Ki of the following entry: CCC(=O)N(CC1(N2CCN(Cc3ccccc3)CC2)CCOCC1)c1ccc(F)c(C#N)n1
< 500 nM

Please give measured Ki of the following entry: CCC(=O)N(CC1(N2CCN(Cc3ccccc3)CC2)CCOC(C)(C)C1)c1cccc(C#N)n1 (centres unmarked)
< 500 nM

Please give measured Ki of the following entry: CCC(=O)N(CC1(N2CCN(Cc3ccccc3)CC2)CCOC(C)(C)C1)c1ccccn1 (centres unmarked)
< 500 nM

* * *

molecular target: human σ1 receptor (Homo sapiens); assay: biochemical; format: binding
As shown below, each of these compounds has a reported Ki value.

Please give measured Ki of the following entry: CCC(=O)N(CC1(N2CCN(Cc3ccccc3)CC2)CC1)c1cccnc1C(F)(F)F
< 500 nM

Please give measured Ki of the following entry: CCC(=O)N(CC1(N2CCN(CC(C)C)CC2)CCSCC1)c1cccc(C(F)(F)F)n1
< 500 nM

Please give measured Ki of the following entry: CCC(=O)N(CC1(N2CCN(CCOC(C)C)CC2)CCOC(C)(C)C1)c1cccc(C(F)(F)F)n1 (centres unmarked)
< 500 nM

* * *

molecular target: human σ1 receptor (Homo sapiens); assay: biochemical; assay type: binding
As shown below, each of these molecules has a reported Ki value.

A selection of reference data follows.
| molecule | result |
| --- | --- |
| CCC(=O)N(CC1(N2CCN(Cc3cncc(F)c3)CC2)CC1)c1ccccc1 | < 500 nM |
| CCC(=O)N(CC1(N2CCN(Cc3ccccc3)CC2)CC1)c1cccc(C#N)c1 | < 500 nM |
| CCC(=O)N(CC1(N2CCN(Cc3ccccc3)CC2)CC1)c1cnccc1C(F)(F)F | < 500 nM |
| CCC(=O)N(CC1(N2CCN(Cc3ccccc3)CC2)CCOCC1)c1ccncc1 | > 500 nM |
| CCC(=O)N(CC1(N2CCN(Cc3ccc(F)cn3)CC2)CC1)c1ccccc1 | > 500 nM |

Please give measured Ki of the following entry: CCC(=O)N(CC1(N2CCN(Cc3ccccc3)CC2)CC1)c1nccs1
< 500 nM

Please give measured Ki of the following entry: CCC(=O)N(CC1(N2CCN(CCC(C)C)CC2)CCOC(C)(C)C1)c1cccc(C(F)(F)F)n1 (centres unmarked)
< 100 nM

* * *

As shown below, each of these compounds has a reported pKi value.
target: human σ1 receptor (Homo sapiens, UniProt Q99720); test: biochemical; assay type: binding
pKi: −log10 of the molar value.

| cpd_smiles | result |
| --- | --- |
| CCOCCCN1CCN(C2(CN(C(=O)CC)c3cccc(C(F)(F)F)n3)CCOCC2)CC1 | > 6.30 |
| CCC(=O)N(CC1(N2CCN(CCOC(C)C)CC2)CCOCC1)c1ncccc1F | > 6.30 |
| CCC(=O)N(CC1(N2CCN(Cc3ccc(F)c(F)c3)CC2)CCOCC1)c1ccccc1 | > 6.30 |

Please give measured pKi of the following entry: CCC(=O)N(CC1(N2CCN(Cc3ccccn3)CC2)CCOCC1)c1ccccc1
< 6.30

Please give measured pKi of the following entry: CCC(=O)N(CC1(N2CCN(Cc3ccccc3F)CC2)CCOCC1)c1ccccc1
> 6.30

Please give measured pKi of the following entry: CCC(=O)N(CC1(N2CCN(Cc3ccccc3)CC2)CCOCC1)c1cc(C(F)(F)F)ccn1
> 6.30

* * *

target: human σ1 receptor (Homo sapiens, UniProt Q99720); assay: biochemical; assay type: binding
property_measured: Ki

| molecule | result |
| --- | --- |
| CCC(=O)N(CC1(N2CCN(Cc3ccccc3)CC2)CCOCC1)c1ncccc1F | < 100 nM |
| CCOCCN1CCN(C2(CN(C(=O)CC)c3ncccc3F)CCOC(C)(C)C2)CC1 (centres unmarked) | > 500 nM |
| CCC(=O)N(CC1(N2CCN(Cc3ccccn3)CC2)CC1)c1ccccc1 | < 500 nM |
| CCC(=O)N(CC1(N2CCN(CC(C)C)CC2)CCOCC1)c1cccc(C#N)n1 | > 500 nM |
| CCC(=O)N(CC1(N2CCN(CCC(C)C)CC2)CCOCC1)c1cccc(C(F)(F)F)n1 | < 100 nM |
| CCC(=O)N(CC1(N2CCN(CC(C)(C)F)CC2)CCOCC1)c1cccc(C(F)(F)F)n1 | < 500 nM |
| CCC(=O)N(CC1(N2CCN(Cc3ccccc3)CC2)CCOC(C)(C)C1)c1ncccc1C(F)(F)F (centres unmarked) | < 500 nM |
| CCC(=O)N(CC1(N2CCN(Cc3ccc(F)cc3)CC2)CCOCC1)c1ccccn1 | < 500 nM |
| CCC(=O)N(CC1(N2CCN(CCC(C)C)CC2)CCOC2(CCCC2)C1)c1cccc(C(F)(F)F)n1 (centres unmarked) | < 500 nM |
| CCC(=O)N(CC1(N2CCN(CCOC(C)C)CC2)CCOCC1)c1ccccn1 | > 500 nM |

Please give measured Ki of the following entry: CCNC(=O)N(CC1(N2CCN(Cc3ccccc3)CC2)CC1)c1ccccc1
< 500 nM

* * *

target: UniProt:Q99720; assay: biochemical; type: binding
As shown below, each of these compounds has a reported Ki value.

A selection of reference data follows.
| compound | Ki |
| --- | --- |
| CCC(=O)N(CC1(N2CCN(Cc3ccccc3)CC2)CCOC(C)(C)C1)c1ncccc1F (stereo not shown) | < 500 nM |
| CCC(=O)N(CC1(N2CCN(CCC(C)C)CC2)CCOCC1)c1ncccc1F | < 500 nM |
| CCC(=O)N(CC1(N2CCN(Cc3ccccc3)CC2)CCOCC1)c1cncc(F)c1 | < 500 nM |

Report measured Ki on UniProt:Q99720; entry: CCC(=O)N(CC1(N2CCN(Cc3ccccc3)CC2)CCOCC1)c1ccccc1OC
< 100 nM

Report measured Ki on UniProt:Q99720; entry: CCC(=O)N(CC1(N2CCN(CCOC(C)C)CC2)CCOC(C)(C)C1)c1ccccn1 (stereo not shown)
> 500 nM

Report measured Ki on UniProt:Q99720; entry: CCC(=O)N(CC1(N2CCN(CC(C)C)CC2)CCOCC1)c1ccccc1
< 500 nM

Report measured Ki on UniProt:Q99720; entry: CCC(=O)N(CC1(N2CCN(Cc3ccc(C(F)(F)F)nc3)CC2)CCOCC1)c1ccccc1
> 500 nM

Report measured Ki on UniProt:Q99720; entry: CCC(=O)N(CC1(N2CCN(Cc3ccccc3)CC2)CCOC2(CCCC2)C1)c1cccc(C(F)(F)F)n1 (stereo not shown)
< 100 nM

Report measured Ki on UniProt:Q99720; entry: CCC(=O)N(CC1(N2CCN(CC(C)C)CC2)CCOC2(CCCC2)C1)c1cccc(C(F)(F)F)n1 (stereo not shown)
< 500 nM

Report measured Ki on UniProt:Q99720; entry: CCC(=O)N(CC1(N2CCN(CCOC(C)C)CC2)CCOC(C)(C)C1)c1ncccc1F (stereo not shown)
< 500 nM
